Entry source: patent US20250059285A1

Target: T1, human Gal10-His (human, UniProt Q05315 2-142, limits assumed)
T1 construct: also called hGal10-His; human Gal10-His tagged; not shown: His tag
T1 sequence: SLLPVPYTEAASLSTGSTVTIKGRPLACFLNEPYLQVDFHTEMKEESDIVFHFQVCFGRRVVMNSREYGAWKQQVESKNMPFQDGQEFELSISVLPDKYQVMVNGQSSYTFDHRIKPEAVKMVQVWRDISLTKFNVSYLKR
Test: SPR Biacore 3000, hFab on captured human Gal10-His; column head prints (M), the text gives nM
recordedMetric: Kd (nM)
Use nM as the unit, but write only the number.

QUERY: Please look up its Kd: g24F02_N53A (human Fab) (Fab, V domains shown, Human Fab backbone: human CH1 and human lambda constant domain (pUPEX vectors); also called g24F02_N53A_2W) VH: EVQLLESGGGLVQPGGSLRLSCAASGFTFSSYAMSWVRQAPGKGLEWVSAINAGGGSTSYADSVKGRFTISRDNSKNTLYLQMNSLRAEDTAVYYCAKGLRVGVLGFDYWGQGTLVTVSS VL: SYELTQPLSVSVALGQTARITCDGNNIGSKSAQWYQQKPGQAPVLVIYADEYRPEGIPERFSGSNSGNTATLTISRAQAGDEADYYCQVWDGSAAVFGGGTQLTVL
RESULT: 1.43
